- test name: qHTS for Antagonists of gsp, the Etiologic Mutation Responsible for Fibrous Dysplasia/McCune-Albright Syndrome: qHTS; also: nearly all actives have a fitted effect of over 65% in size; also: potency is read from the fitted curve at half-maximal effect
- reported conditions: gsp-mutant cells, cAMP HTRF, 30 min; series mostly up to 76.9 µM
Screen size: about 340,000 compounds; about 1,400 (0.41%) were called active. Not shown: some 4% with an inconclusive outcome. Only a selection was taken, and actives are over-represented in it overall.
readout type: Potency

Sample answers from the record:
Problem: Would you mind telling me what Potency value was observed for CC1=CC(=Cc2sc3ccccc3[n+]2C)C=C(C)O1 ?
Result: 44.7 µM (active)

Problem: Next: CC(=O)OC1C2(CC3N4C(=O)C5(CO)SSC4(CC31O)C(=O)N5C)OC(C)C(C)(C)C2=O (configuration not stated)
Result: inactive

Problem: Next: COC(=O)C1=C(c2c(C)noc2C)C[C@@H]2CC[C@H]1N2C(=O)NCc1ccc2c(c1)OCO2
Result: inactive

Problem: Next: COc1cc(C(c2c(O)c3ccccc3oc2=O)c2c(C)n(C)n(-c3ccccc3)c2=O)ccc1O (configuration not stated)
Result: inactive

Continuing:
Problem: Would you mind telling me what Potency value was observed for CCC(=O)CC(c1ccc([N+](=O)[O-])cc1)c1c(O)c2ccccc2oc1=O (configuration not stated) ?
Result: 31.6 µM (active)

Problem: Next: CC[C@H]1CN2CCc3cc(OC)c(OC)cc3[C@@H]2C[C@@H]1C[C@H]1NCCc2cc(OC)c(OC)cc21
Result: inactive

Problem: Next: COc1ccc(-n2c(-c3ccccc3)nc3ccccc3c2=O)cc1
Result: inactive
